Origin of measurements: patent US20020072081A1

Molecular target: GGTase-I (Rattus norvegicus, UniProt P53610)
Construct: endogenous in cells
Test: Cell Radiotracer Assay of Geranylgeranyl Transferase Inhibitor (CRAGGTI), radioligand binding to living cells
Conditions: H-ras transformed Rat1 fibroblast cell line; specific binding, non-specific determined with 1000-fold molar excess of unlabeled Compound A; read-out: concentration of [^3H] Compound A that achieves half maximal binding to cells (apparent Kd)
property_label: Kd

Give Kd for [3H]C(O)(CN1CCN(Cc2cncn2Cc2ccc(C#N)cc2)CC1=O)C12CC3CC(CC(C3)C1)C2 (stereo not shown) [[^3H] Compound A]
~300 pM
